Every entry's value here was drawn from paper PMC6900558.

- tested-on: UniProt:Q60492
- Sequence (Q60492 whole entry): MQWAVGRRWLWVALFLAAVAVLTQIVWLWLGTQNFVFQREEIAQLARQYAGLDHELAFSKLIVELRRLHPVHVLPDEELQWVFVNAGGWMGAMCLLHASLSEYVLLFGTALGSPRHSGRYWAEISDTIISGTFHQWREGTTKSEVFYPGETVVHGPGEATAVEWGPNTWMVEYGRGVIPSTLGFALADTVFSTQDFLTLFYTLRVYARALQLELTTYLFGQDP
- experiment-description: Ex vivo σ1 receptor binding assay
measured-metric: Ki (nM)

| compound-smiles | measured-metric | readout-number |
| --- | --- | --- |
| CN1CCN(CCCOc2ccc(=O)n(-c3ccc(Cl)c(Cl)c3)n2)CC1 | Ki | 5.6 |
| COc1ccc(-n2nc(OCCCN3CCCCC3)ccc2=O)cc1 | Ki | 10.3 |

----------
- experiment-description: Experimental logD
- Assay type: physicochemical
- particulars: PBS (aqueous phase; partition solvent not stated), pH 7.4
Parameter logD: see the listing below.

| compound | logD |
| --- | --- |
| CN1CCN(CCCOc2ccc(=O)n(-c3ccc(Cl)c(Cl)c3)n2)CC1 [compound 15] | 1.73 |
| COc1ccc(-n2nc(OCCCN3CCCCC3)ccc2=O)cc1 [compound 13] | 0.89 |
